# kinact/KI per entry
Target: Human FAAH (Homo sapiens, UniProt O00519)
Construct: made in house
Sequence (O00519 32-579 limits assumed): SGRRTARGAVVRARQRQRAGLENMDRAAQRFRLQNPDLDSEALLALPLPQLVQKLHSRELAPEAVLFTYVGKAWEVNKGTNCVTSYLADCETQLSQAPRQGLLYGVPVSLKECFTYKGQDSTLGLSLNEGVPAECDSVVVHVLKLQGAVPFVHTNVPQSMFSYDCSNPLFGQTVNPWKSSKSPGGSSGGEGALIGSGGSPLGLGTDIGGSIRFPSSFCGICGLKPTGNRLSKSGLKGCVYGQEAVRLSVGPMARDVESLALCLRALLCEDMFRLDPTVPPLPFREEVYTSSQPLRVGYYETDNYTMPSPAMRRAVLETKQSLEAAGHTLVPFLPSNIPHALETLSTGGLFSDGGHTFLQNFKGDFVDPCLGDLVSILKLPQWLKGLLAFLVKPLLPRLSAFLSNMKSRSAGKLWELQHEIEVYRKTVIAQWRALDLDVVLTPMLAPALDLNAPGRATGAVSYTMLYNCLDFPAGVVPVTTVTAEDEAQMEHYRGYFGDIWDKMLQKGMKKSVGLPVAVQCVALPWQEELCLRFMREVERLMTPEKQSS
Test: FAAH assay, kinetic analysis of irreversible inhibition (kinact/Ki)
Type: biochemical
Settings: additional data table, unit inferred, read-out: hFAAH_Kinact/Ki
Enter your answer as a number in M⁻¹ s⁻¹; do not include the unit.

Sample answers from the record:
[
  {
    "MOLECULE": "Cc1noc(NC(=O)N2CCC(=Cc3cccc(OCC(C)CC(F)(F)F)c3)CC2)c1C (stereo not shown)",
    "UNIT NAME": "M⁻¹ s⁻¹",
    "kinact/KI": 5190
  },
  {
    "MOLECULE": "Cc1ncsc1CCOc1cccc(C=C2CCN(C(=O)Nc3cnoc3C)CC2)c1",
    "UNIT NAME": "M⁻¹ s⁻¹",
    "kinact/KI": 903
  },
  {
    "MOLECULE": "Cc1noc(NC(=O)N2CCC(=Cc3cccc(OCC4CCC(F)(F)CC4)c3)CC2)c1C",
    "UNIT NAME": "M⁻¹ s⁻¹",
    "kinact/KI": 3970
  },
  {
    "MOLECULE": "Cc1oncc1NC(=O)N1CCC(=Cc2cccc(OCC3CCCC3)c2)CC1",
    "UNIT NAME": "M⁻¹ s⁻¹",
    "kinact/KI": 838
  },
  {
    "MOLECULE": "Cc1cccc(OCCOc2cccc(C=C3CCN(C(=O)Nc4onc(C)c4C)CC3)c2)c1",
    "UNIT NAME": "M⁻¹ s⁻¹",
    "kinact/KI": 13900
  },
  {
    "MOLECULE": "Cc1noc(NC(=O)N2CCC(=Cc3cccc(OC4CCC(F)(F)CC4)c3)CC2)c1C",
    "UNIT NAME": "M⁻¹ s⁻¹",
    "kinact/KI": 2540
  },
  {
    "MOLECULE": "Cc1noc(NC(=O)N2CCC(=Cc3cccc(OCCC4CC4)c3)CC2)c1C",
    "UNIT NAME": "M⁻¹ s⁻¹",
    "kinact/KI": 12900
  },
  {
    "MOLECULE": "Cc1ncsc1CCOc1cccc(C=C2CCN(C(=O)Nc3onc(C)c3C)CC2)c1",
    "UNIT NAME": "M⁻¹ s⁻¹",
    "kinact/KI": 4920
  }
]

Query: Quick one: kinact/KI of `Cc1oncc1NC(=O)N1CCC(=Cc2cccc(OCCc3cccc(F)c3)c2)CC1` ?
Response: 11000

Query: What about this molecule? `Cc1noc(NC(=O)N2CCC(=Cc3cccc(OCCC(C)C)c3)CC2)c1C`
Response: 7710
